studySystem: natural β-amyloid peptide β-AP1-40 (human)
Sequence (peptide, as listed by the source): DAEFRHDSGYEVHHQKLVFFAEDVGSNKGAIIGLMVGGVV
testDescription: cell-based or functional assay
Square brackets hold non-standard residues; d marks the D form. * marks the point of attachment. Cholyl = C[C@H](CCC(=O)*)[C@H]1CC[C@H]2[C@@H]3[C@H](O)C[C@@H]4C[C@H](O)CC[C@]4(C)[C@H]3C[C@H](O)[C@]12C; Tyr(3-I) = N[C@@H](Cc1ccc(O)c(I)c1)C(=O)O; NANA = N-acetyl neuraminyl
metric: % Inucl'n; nucleation assay; 100 mole % (%)
I only need the number, in %, no unit after it.

# count of solved cases: 3
Cholyl-LVF[Tyr(3-I)]A-OH [CA-LVF(IY)A-oh]; 95
Cholyl-LVFFA-OH (SMILES CC(C)C[C@H](NC(=O)CC[C@@H](C)[C@H]1CC[C@H]2[C@@H]3[C@H](O)C[C@@H]4C[C@H](O)CC[C@]4(C)[C@H]3C[C@H](O)[C@]12C)C(=O)N[C@H](C(=O)N[C@@H](Cc1ccccc1)C(=O)N[C@@H](Cc1ccccc1)C(=O)N[C@@H](C)C(=O)O)C(C)C) [cholyl-Aβ17-21]; 100
Cholyl-LVFFAE-OH (SMILES CC(C)C[C@H](NC(=O)CC[C@@H](C)[C@H]1CC[C@H]2[C@@H]3[C@H](O)C[C@@H]4C[C@H](O)CC[C@]4(C)[C@H]3C[C@H](O)[C@]12C)C(=O)N[C@H](C(=O)N[C@@H](Cc1ccccc1)C(=O)N[C@@H](Cc1ccccc1)C(=O)N[C@@H](C)C(=O)N[C@@H](CCC(=O)O)C(=O)O)C(C)C) [CA-LVFFAE-oh]; 55

Entry Cholyl-QKLVF-OH (SMILES CC(C)C[C@H](NC(=O)[C@H](CCCCN)NC(=O)[C@H](CCC(N)=O)NC(=O)CC[C@@H](C)[C@H]1CC[C@H]2[C@@H]3[C@H](O)C[C@@H]4C[C@H](O)CC[C@]4(C)[C@H]3C[C@H](O)[C@]12C)C(=O)N[C@H](C(=O)N[C@@H](Cc1ccccc1)C(=O)O)C(C)C) [cholyl-Aβ15-19] has what % Inucl'n; nucleation assay; 100 mole %?
-23

Entry {NANA}-KLVFF-OH [NANA-KLVFF-oh] has what % Inucl'n; nucleation assay; 100 mole %?
16

FYI, the data here is from patent US7658917.
